# assay_target: Grb2 SH2 (UniProt P62993)
# protocol_description: SH2 binding enrichment of the phosphorylated peptide, bacterial display (enrichment ratio); higher = better substrate or ligand; peptides without Tyr show the background
readout_kind: SH2 binding enrichment

Answered cases to consult:
| sequence_string | result_number |
| --- | --- |
| RRFSSYSQMEN [PKP1_Y120] | 0.79 |
| SQKRKYIEIDS [SDAD1_Y580] | 0.856 |
| DLFRLYVCVKE [ARID1B_Y1091] | 0.59 |
| KSSDVYVSFDC [SORL1_Y136_Y141C_YF] | 1.15 |

a = SADIAYNYRHG [PAH_Y166_F161S]
b = SLFPGYNFRFA [P2RX7_Y291_YF]
Q. // select label with min value of measured SH2 binding enrichment from [ a , b ] Use the label to indicate which entry you chose.
A. a

====

# assay_target: c-Src SH2
# protocol_description: SH2 binding enrichment of the phosphorylated peptide, bacterial display (enrichment ratio); higher = better substrate or ligand; peptides without Tyr show the background
readout_kind: SH2 binding enrichment

Answered cases to consult:
| sequence_string | assay_target | SH2 binding enrichment |
| --- | --- | --- |
| EICTQYEAMAS [GFAP_Y242_R239C] | c-Src SH2 | 2.84 |
| NTYEKYWPFYQ [GATM_Y103] | c-Src SH2 | 1.24 |
| QDEHGYIFRCF [HSPB1_Y133_S135F] | c-Src SH2 | 0.566 |
| LRYDVYGGENE [STOX1_Y610_E608D] | c-Src SH2 | 0.875 |
| NVFGNYNNQSS [HNRNPA1_Y318_D314V] | c-Src SH2 | 0.397 |

1 = GDFSRYDEGSG [RECQL5_Y484]
2 = ANNEYYFQVCA
Q. Quick check, higher SH2 binding enrichment between 1 and 2 ? Use the label to indicate which entry you chose.
A. 1
(1: 0.562, 2: 0.367)

====

phosphorylation enrichment reference
# System: Fer (mouse)
# protocol_description: phosphorylation enrichment, bacterial display (enrichment ratio); higher = better substrate or ligand; peptides without Tyr show the background
The answer should be written as a number, with no unit following it.

| sequence_string | phosphorylation enrichment |
| --- | --- |
| SVTCTHSPALN [TP53_Y126_Y126H] | 0.542 |

Q. Please report the measured phosphorylation enrichment for EARRVYRDIIH [ALDH5A1_Y175_G176R]
A. 0.305

====

# assay_target: FGFR1 (UniProt P11362)
# Sequence (P11362 whole entry, looked up): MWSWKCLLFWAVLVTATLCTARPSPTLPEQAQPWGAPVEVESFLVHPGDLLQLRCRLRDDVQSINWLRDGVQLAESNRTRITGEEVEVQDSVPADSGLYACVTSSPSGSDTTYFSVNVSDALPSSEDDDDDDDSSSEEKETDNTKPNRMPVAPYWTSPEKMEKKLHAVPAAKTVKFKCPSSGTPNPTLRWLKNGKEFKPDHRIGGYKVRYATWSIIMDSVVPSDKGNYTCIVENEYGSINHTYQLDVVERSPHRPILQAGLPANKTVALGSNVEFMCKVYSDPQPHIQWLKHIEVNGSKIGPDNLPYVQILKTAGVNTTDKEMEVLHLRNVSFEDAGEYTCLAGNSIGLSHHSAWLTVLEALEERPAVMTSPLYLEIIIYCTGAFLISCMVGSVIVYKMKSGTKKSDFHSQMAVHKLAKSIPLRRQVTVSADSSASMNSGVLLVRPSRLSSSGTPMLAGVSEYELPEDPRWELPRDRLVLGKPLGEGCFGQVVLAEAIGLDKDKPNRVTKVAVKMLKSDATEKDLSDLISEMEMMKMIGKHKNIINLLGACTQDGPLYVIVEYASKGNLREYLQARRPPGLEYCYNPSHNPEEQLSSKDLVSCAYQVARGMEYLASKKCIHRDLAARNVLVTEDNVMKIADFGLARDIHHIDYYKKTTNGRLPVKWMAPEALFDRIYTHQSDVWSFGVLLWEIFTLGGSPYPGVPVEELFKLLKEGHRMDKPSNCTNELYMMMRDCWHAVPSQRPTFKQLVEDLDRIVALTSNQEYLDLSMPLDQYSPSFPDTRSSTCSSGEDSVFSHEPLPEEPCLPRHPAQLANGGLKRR
# protocol_description: phosphorylation enrichment, bacterial display (enrichment ratio); higher = better substrate or ligand; peptides without Tyr show the background
phosphorylation enrichment reference
The answer should be written as a number, with no unit following it.

Answered cases to consult:
| sequence_string | result_number |
| --- | --- |
| DRLTVYIDRVR [LMNA_Y45_A43T] | 0.426 |
| NRDNTYNPVSE [FGA_Y127_R129P] | 0.457 |
| PAIYTYDEYKK [COL8A2_Y648_T645I] | 2.04 |
| QLHRKYCLSPR [HJURP_Y445_E444K] | 0.815 |
| DLGIQYKVLKP [CTNNA1_Y177_A179V] | 0.481 |
| IIRFNYLLDVL [FGFR4_Y237_S232I_YF] | 0.809 |
| RKEAQYMLENE [SLC16A6_Y224] | 0.503 |
| PEVSGYCHFAD [TG_Y234_C237Y_YF] | 0.709 |
| ADTETYLLEKS [MYH7_Y266_I263T] | 0.57 |
| IYHLSYIHNCE [PDE6B_Y227_L228I] | 2.65 |

Q. Please report the measured phosphorylation enrichment for GDFSRYDEGSG [RECQL5_Y484]
A. 0.471

Q. Please report the measured phosphorylation enrichment for DTLASYLDKVR [KRT12_Y139_R135T]
A. 0.352

Q. Please report the measured phosphorylation enrichment for IKKLIYVYLVI [JAGN1_Y42_H44Y]
A. 0.351

Q. Please report the measured phosphorylation enrichment for GEKKAYVRLAP [RPL23A_Y137]
A. 0.425
